// values below are reported IC50
# System: H1299 human non-small cell lung carcinoma
# Method Notes: Cell viability, cellular ATP levels (Vialight HS)
# Format: cell-based
# Measurement Conditions: NCI-H1299, Table 7, cellular ATP levels, read-out: IC50 H1299
Report field: quantity (unit follows the number).

Query string: Query (compound): COc1ccc2c(c1)C1(C)C=CC(=O)C(C)(C)C1=C(OP(=O)(OCc1ccccc1)OCc1ccccc1)C2=O (centres unmarked) ; field requested: IC50
Result string: 1540 nM

Okay, now this compound:
Query string: Look at this compound and give its reported IC50. CC1(C)C(=O)C=CC2(C)C1=C(O)C(=O)c1ccc(O)cc12 (centres unmarked)
Result string: 302 nM

###

# Method Notes: Solubility by filtration and LC/MS
# Format: physicochemical
# Measurement Conditions: in water (printed for Compound 74)
Endpoint Label: solubility

Query string: Requested read-out: solubility. Entry: COc1ccc2c(c1)C1(C)C=CC(=O)C(C)(C)C1=C(OP(=O)(O)O)C2=O (racemic)
Result string: ≥ 10000 µg/mL

Shift focus to the following entry.
Query string: Given the entry COc1ccc2c(c1)C1(C)C=CC(=O)C(C)(C)C1=C(O)C2=O (racemic) , report its measured solubility.
Result string: < 100 µg/mL
